assay: Cytotoxic Profiling in HEK 293 Cell Line of Diverse Libraries Using Quantitative High-Throughput Screening; conditions: HEK 293 viability, ATP luminescence (CellTiter-Glo), 48-72 h; series mostly up to 115 µM; note: nearly all actives have a fitted effect of over 60% in size
About 6,200 (6.6%) of roughly 94,000 compounds were called active. Not shown: some 31% with an inconclusive outcome. Calls come from the whole dose curve; as a rule, active = well fitted inhibition curve with a large enough effect; inconclusive = small, poorly fitted or top-dose-only effect; inactive = flat fitted curve, though single readings scatter. The sample holds actives, similar compounds and a random draw of the others, so the mix is not that of the screen.
Outcome (select one): true (1) for active, false (0) for inactive

Observe how each entry below is paired with its result.
- molecule: "CN(Cc1ccc(-c2ccccc2)cc1)C(=O)c1ccccc1F"
  group: "true (1)"
- molecule: "COc1cccc(CN2CC[C@@](C)(O)[C@H](N3CCCC3)C2)c1"
  group: "false (0)"
- molecule: "CCN(Cc1cnn(CC)c1)C(=O)C1CCCCC(=O)N1Cc1cccc(OC)c1 (stereo not drawn)"
  group: "false (0)"
- molecule: "Cc1cc(C(=O)N2CCCCC2c2noc(COc3ccc(F)cc3)n2)nn1C (stereo not drawn)"
  group: "false (0)"
- molecule: "O=C(c1ccc(-n2cnnc2)cc1)N1CCC2(CCCO2)CC1"
  group: "false (0)"

Task: How was C[S+](=O)([O-])NC1CC2(CCN(Cc3ccc(O)cc3)CC2)c2ccccc21 (stereo not drawn) classified in this test?
Output: false (0)

Task: Short answer needed: outcome of this test for O=C(Nc1cccc(Cl)c1)[C@@H]1C[C@H](c2ccc(F)cc2)N([S+](=O)([O-])C2CC2)C1 ?
Output: true (1)

Task: Please let me know the test result on file for COc1ccc(C(=O)N2CCOC3(CCN(C(=O)CN)CC3)C2)cc1 .
Output: false (0)

Task: For Cc1ccc(NC(=O)CC2CCCN(c3cn[nH]c(=O)c3)C2)cc1F (stereo not drawn) , what call appears in the results of this test?
Output: false (0)

Task: Write down the call the test reported for this molecule. Item: COc1ccc(-c2noc(-c3cccn3CC(=O)Nc3ccccc3)n2)cc1F
Output: false (0)

Task: GET /call?item= COCCOCC(=O)N1CCCC(c2nc(-c3cccnc3)no2)CCNC(=O)CC1 (stereo not drawn) returns the recorded outcome of this test.
Output: false (0)

Task: What outcome does the record of this test show for CCCn1cc(C(=O)N2C[C@H](c3ccccc3)[C@@H](N)C2)c(C)n1 ?
Output: false (0)

Task: Dear colleague, could you share the recorded outcome for COc1cccc(CN2CCN(C(=O)c3cnc4ccccn4c3=O)CC2=O)c1 when you have a moment?
Output: false (0)

Task: Each molecule tested received a call. Report the one for CCOc1ccc(CN2CCN(CC(N)=O)CC2CCO)cc1 (stereo not drawn) .
Output: false (0)

Task: So what was the verdict on Cc1nsc(NC(=O)N2CCC(C(=O)N3CCCC3)CC2)n1 in this test?
Output: false (0)

Task: I would be grateful if you could indicate the recorded call for O=C(NC[C@H]1O[C@@H](CO)[C@@H](O)[C@H]1N1CCOCC1)Nc1ccc(OC(F)(F)F)cc1 .
Output: false (0)

Task: GET /call?item= COc1ccc2ccc(OCc3nc(C(=O)N4CCC(=O)NCC4C)co3)cc2c1 (stereo not drawn) returns the recorded outcome of this test.
Output: true (1)

Task: Given CCN1CC2(CCN(C(=O)c3cccc(N4CCOCC4)c3)CC2)OC1=O , state the outcome it received in this test.
Output: false (0)

Task: Given COc1cccc(CN2CCOC3CCN(C(=O)c4cccnc4)CC3C2=O)c1 (stereo not drawn) , state the outcome it received in this test.
Output: false (0)

Task: Recorded call for COCC(=O)NC1CCC12CCN(C(=O)CCCc1ccccc1)CC2 (stereo not drawn) ?
Output: false (0)

Task: Called result for Cc1ccc(C2Cn3nnc(C(=O)N4CCN(C(=O)COc5cccc(C)c5)CC4)c3CO2)cc1 (stereo not drawn)
Output: false (0)

Hello, the source for this data is PubChem BioAssay AID1345083, in case you need it.
